meta.source: patent US8895526B2

The entries below are paired with their reported Fold depletion in AML.
System: tet-on competent MLL/AF9+Nras AML
method notes: Pooled negative selection RNAi screening (deep sequencing)
Assay type: cell-based, mouse
condition info: deep sequencing reads, On Dox compared to T0

{"molecule": "Fgd4.821: shRNA, SEQ ID NO: 119 (nucleic acid) TGCTGTTGACAGTGAGCGAAAGGAGACTAATGAACAGAAATAGTGAAGCCACAGATGTATTTCTGTTCATTAGTCTCCTTCTGCCTACTGCCTCGGA", "unit abbreviation": "Fold", "Fold depletion in AML": 25.66}
{"molecule": "Luciferase.1309: neutral control shRNA, SEQ ID NO: 202 (nucleic acid) TGCTGTTGACAGTGAGCGCCCGCCTGAAGTCTCTGATTAATAGTGAAGCCACAGATGTATTAATCAGAGACTTCAGGCGGTTGCCTACTGCCTCGGA", "unit abbreviation": "Fold", "Fold depletion in AML": 1.22}
{"molecule": "Ogg1.395: shRNA, SEQ ID NO: 157 (nucleic acid) TGCTGTTGACAGTGAGCGACAGATCAAGTATGGACACTGATAGTGAAGCCACAGATGTATCAGTGTCCATACTTGATCTGCTGCCTACTGCCTCGGA", "unit abbreviation": "Fold", "Fold depletion in AML": 8.69}
{"molecule": "Nmur1.7: shRNA, SEQ ID NO: 152 (nucleic acid) TGCTGTTGACAGTGAGCGCCTGCAATATCAGTGAGTTCAATAGTGAAGCCACAGATGTATTGAACTCACTGATATTGCAGATGCCTACTGCCTCGGA", "unit abbreviation": "Fold", "Fold depletion in AML": 19.45}
